Some molecules, each annotated with its measured IC50.
Subject Of Test: Falcipain 2 (Plasmodium falciparum, UniProt Q9N6S8)
Sequence (Q9N6S8 whole entry): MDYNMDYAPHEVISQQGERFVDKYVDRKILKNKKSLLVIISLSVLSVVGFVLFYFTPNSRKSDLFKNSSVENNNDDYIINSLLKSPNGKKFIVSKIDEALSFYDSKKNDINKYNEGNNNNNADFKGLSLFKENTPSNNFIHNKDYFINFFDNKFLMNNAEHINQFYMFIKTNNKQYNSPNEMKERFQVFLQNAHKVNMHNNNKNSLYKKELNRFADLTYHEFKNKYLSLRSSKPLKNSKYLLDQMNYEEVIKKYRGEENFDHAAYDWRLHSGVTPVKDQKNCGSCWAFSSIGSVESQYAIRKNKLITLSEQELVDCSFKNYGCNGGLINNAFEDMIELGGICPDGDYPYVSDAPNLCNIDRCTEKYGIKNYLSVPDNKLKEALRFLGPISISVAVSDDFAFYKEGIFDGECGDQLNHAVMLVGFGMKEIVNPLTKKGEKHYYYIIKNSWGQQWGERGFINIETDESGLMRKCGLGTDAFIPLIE
Protocol Summary: Inhibition of Plasmodium falciparum FP-2 using Z-Phe-Arg-AMC as substrate pretreated with enzyme for 10 mins followed by susbtrate addition and measured after 10 mins by fluorescence based analysis
Field format: number, assumed nM, no unit text.

COc1cc(/C=C(\C#N)c2nc3ccccc3[nH]2)cc(OC)c1 = 3610

Continue with the molecule presented below.
Query: Please report the recorded IC50 for `COc1cccc(/C=C(\C#N)c2nc3ccccc3[nH]2)c1` .
Response: 2210

###

Subject Of Test: Falcipain 2 (Plasmodium falciparum)
Protocol Summary: Inhibition of Plasmodium falciparum Itg2 trophozite extracts FP-2 using Z-phe-Arg-AMC as substrate pretreated with enzyme for 30 mins followed by substrate addition and measured for 30 mins by spectrofluorometry
pIC50: −log10 of the molar value.
Would you mind labelling by pIC50? At or over 6 is Criterion met, under is Criterion not met.

COc1cc2ccnc(-c3ccc(OCc4ccccc4)cc3)c2cc1OC = Criterion not met

Query: Please tell me: is the molecule `Oc1ccc(-c2nccc3ccc(Cc4ccccc4)cc23)cc1` at or over 6 in terms of pIC50?
Response: Criterion not met

Query: Please tell me: is the molecule `CC(C)C[C@H](NC(=O)N1CCN(C)CC1)C(=O)N[C@H](/C=C/S(=O)(=O)c1ccc2ccccc2c1)CCc1ccccc1` at or over 6 in terms of pIC50?
Response: Criterion met

Query: Please tell me: is the molecule `COc1ccc(-c2nccc3ccc(Cc4ccccc4)cc23)cc1` at or over 6 in terms of pIC50?
Response: Criterion not met

Query: Please tell me: is the molecule `CC(C)C[C@H](NC(=O)N1CCN(C)CC1)C(=O)N[C@H](/C=C/S(=O)(=O)c1ccccc1)CCc1ccccc1` at or over 6 in terms of pIC50?
Response: Criterion met

Query: Please tell me: is the molecule `O=C(N[C@H](/C=C/S(=O)(=O)c1ccccc1)CCc1ccccc1)[C@H](Cc1ccccc1)NC(=O)N1CCOCC1` at or over 6 in terms of pIC50?
Response: Criterion met

###

Subject Of Test: Falcipain 2 (Plasmodium falciparum)
Protocol Summary: Inhibition of Plasmodium falciparum FP-2 using Z-Leu-Arg-AMC as substrate pretreated with enzyme for 30 mins followed by substrate addition and measured for 30 mins by spectrofluorometry
Attribute Measured: IC50 (nM)
Field format: number, assumed nM, no unit text.

Query: Please report the recorded IC50 for `NC(=O)c1c(NC(=O)CSc2nc3scc(-c4ccccc4)c3c(=O)n2C2CCCCC2)sc2c1CCC2` .
Response: 1460

###

Subject Of Test: Falcipain 2 (Plasmodium falciparum, UniProt Q9N6S8)
Protocol Summary: Binding affinity to Plasmodium falciparum FP-2 by surface plasmon resonance analysis
Attribute Measured: pKd
Here pKd is given on a logarithmic scale as minus log10 of the concentration in mol/L.

Query: Please report the recorded pKd for `O=C(/C=C\c1ccc(O)c(O)c1)O[C@H]1CO[C@@H](Oc2c(-c3ccc(O)cc3)oc3cc(O)cc(O)c3c2=O)[C@H](OC(=O)/C=C/c2ccc(O)cc2)[C@H]1O` .
Response: 4.47

###

Some compounds, each annotated with its measured pIC50.
Test system: Plasmodium falciparum
Protocol Summary: Antiplasmodial activity against Plasmodium falciparum ItG
Assay type: functional, organism-based
*1 amine or outer side, *2 acyl side, *3 side chain or, on linkers, in order; H or OH if unused. Where a SMILES comes first, the peptide text is derived from it. [ ]: non-standard residue; d: D form. The star is where a group is joined. hPhe = N[C@@H](CCc1ccccc1)C(=O)O; Morpholide = C1CN(*)CCO1; CO = O=C([*:1])[*:2]; CH2F = FC*
Here pIC50 is given on a logarithmic scale as minus log10 of the concentration in mol/L.

Check out these entries, answers already filled in.
CC(C)C[C@H](NC(=O)N1CCN(C)CC1)C(=O)N[C@H](/C=C/S(=O)(=O)c1ccc2ccccc2c1)CCc1ccccc1 = 9.74
CC(C)C[C@H](NC(=O)N1CCN(C)CC1)C(=O)N[C@H](/C=C/S(=O)(=O)c1ccccc1)CCc1ccccc1 = 9.22
CC(C)C[C@H](NC(=O)N1CCOCC1)C(=O)N[C@H](/C=C/S(=O)(=O)c1ccccc1)CCc1ccccc1 = 8.99

Continue with the compound presented below.
Query: Please report the recorded pIC50 for O=C(CF)[C@H](CCc1ccccc1)NC(=O)[C@H](Cc1ccccc1)NC(=O)N1CCOCC1 ({Morpholide-CO}-Phe-[hPhe]-CH2F) .
Response: 9.29
